Item-by-item account of protein stability index
B1: CCDC89 (parent)
chain: LNAELEEKMMQEAEKLKAQGEYSR

Variants of: B1
Assay: protein stability index of a GFP-peptide fusion (GPS, HEK-293T) (PSI 1-6); higher = more stable;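 also: lentivirally expressed fusions sorted by FACS into six bins by GFP to DsRed ratio, PSI derived from sequencing read proportions per bin multiplied by bin number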
Details: c terminus: a fixed tail appended
REPORTED ENDPOINT: protein stability index

{"columns": ["RESIDUE CODES", "REPORTED VALUE"],
 "data": [
  ["LNAELEEKMMNEAEKLKAQGEYSR [Q11N]", 5.04],
  ["LNAELEEKMMQEAEKLKAQCEYSR [G20C]", 2.96],
  ["LNAELEEKMMQEAEKLKAQSEYSR [G20S]", 4.91],
  ["LNAELEEKMMQEAEALKAQGEYSR [K15A]", 5.41],
  ["LNLELEEKMMQEAEKLKAQGEYSR [A3L]", 5.02],
  ["LNAELEEKMMQEAEKLKAQGEYSM [R24M]", 4.99],
  ["LNAELEEKMMQEAEKLKANGEYSR [Q19N]", 4.82],
  ["LNAELEEKMMQEAEKQKAQGEYSR [L16Q]", 4.65],
  ["LNAELEEKMMQEAEKLKAQGEYSP [R24P]", 5.48],
  ["LNAPLEEKMMQEAEKLKAQGEYSR [E4P]", 3.94],
  ["LNAELEEKMMQEAEKLKAQGEYSI [R24I]", 4.86],
  ["LNAELEEKMMQEAEKLKATGEYSR [Q19T]", 5.18],
  ["LNAELEEKMMQEAEQLKAQGEYSR [K15Q]", 5.41],
  ["LNAYLEEKMMQEAEKLKAQGEYSR [E4Y]", 3.74],
  ["LIAELEEKMMQEAEKLKAQGEYSR [N2I]", 4.79],
  ["LNAELEEKMMQEAEKLKAQGEYSF [R24F]", 4.66]
]}
